- System: RXF 393 renal
- Assay Remarks: NCI-60 one-dose screen, 48 h (100 = growth as untreated, 0 = no growth, -100 = all killed)
- Particulars: 10 µM unless noted
The panel holds about 83,000 compounds, 20% with a hit somewhere; the sample as a whole holds those more often.
compounds and their reported growth

{"Compound": "COc1cc(/C=N/O)nc(-c2ccccn2)c1", "Display Unit": "%", "growth": 21.2}
{"Compound": "Cc1cccc(-c2cn3ccnc3c(-c3ccc4ncn(Cc5ccccc5)c4c3)n2)c1", "Display Unit": "%", "growth": 98}
{"Compound": "O=C1c2cccc3c(-c4ccc5c(c4)ncn5C4CCCCC4)ccc(c23)C(=O)N1c1nc2ccccc2s1", "Display Unit": "%", "growth": 105}
{"Compound": "Cc1cc2nc3c4cccc(O)c4n(CCN(C)C)c3nc2cc1C", "Display Unit": "%", "growth": 35.1}
{"Compound": "COc1cc2c(c(OC)c1OC)-c1ccc(NNC(=S)N(Cc3cccc(C[N+](Cc4cccc(CNC56CC7CC(CC(C7)C5)C6)c4)(Cc4cccc(CNC56CC7CC(CC(C7)C5)C6)c4)Cc4cccc(CN(C(=S)NNc5ccc6c(cc5=O)[C@@H](NC(C)=O)CCc5cc(OC)c(OC)c(OC)c5-6)C56CC7CC(CC(C7)C5)C6)c4)c3)C34CC5CC(CC(C5)C3)C4)c(=O)cc1[C@@H](NC(C)=O)CC2 (some centres not stated)", "Display Unit": "%", "growth": 20.2}
{"Compound": "CC(C)(C)c1ccc(NS(=O)(=O)c2ccc3nc(NC(=O)c4cnccn4)[nH]c3c2)cc1", "Display Unit": "%", "growth": 13.5}
{"Compound": "O=C(C1CCC1)N1N=C(c2ccc(-n3ccc(C(F)(F)F)n3)cc2)CC1c1ccc[nH]1 (configuration not stated)", "Display Unit": "%", "growth": 115}

====

- Test system: HT29 colon
- Assay Remarks: NCI-60 one-dose screen, 48 h (100 = growth as untreated, 0 = no growth, -100 = all killed)
- Particulars: 10 µM unless noted
Compounds without any hit were thinned out: in the full panel of roughly 83,000, 20% have a hit. Active and inactive are the calls of the source. The calls were made as follows: active = growth percent below 10; inactive = the rest.

{"Compound": "Cn1cc(-c2nc(-c3c[nH]c4c(Cl)nccc34)cs2)c2cc(F)ccc21", "Tested Target": "HT29 colon", "growth": "87.8% (inactive)"}
{"Compound": "C#CCNC(=O)[C@]1(C)CC[C@]2(C)CC[C@@H]3C(=CC[C@H]4[C@@]3(C)CC[C@H]3C(C)(C)C(=O)CC[C@]43C)[C@@H]2C1", "Tested Target": "HT29 colon", "growth": "93.1% (inactive)"}
{"Compound": "O=C1OC(Cc2ccccc2)C1c1ccccc1 (configuration not stated)", "Tested Target": "HT29 colon", "growth": "106% (inactive)"}
{"Compound": "Cc1ccc(/C=N/NC(=O)CSc2nc3ccccc3c(=O)n2Cc2ccc(S(N)(=O)=O)cc2)cc1", "Tested Target": "HT29 colon", "growth": "86.3% (inactive)"}
{"Compound": "O=C1/C=C/[C@@H](O)[C@@H]2C[C@@H](O)C[C@H]2/C=C/CCC[C@H](CCc2ccc3ncccc3c2)O1", "Tested Target": "HT29 colon", "growth": "-19.6% (active)"}
{"Compound": "CCOC(=O)[C@@H]1CCCN(S(=O)(=O)c2ccc(S(=O)(=O)N(CC)CC)c(F)c2)C1", "Tested Target": "HT29 colon", "growth": "83% (inactive)"}
{"Compound": "CNC(=O)c1cc(Cn2nc(C)c(NC(=O)Nc3ccc(Cl)c(C(F)(F)F)c3)c2C)ccn1", "Tested Target": "HT29 colon", "growth": "92.4% (inactive)"}
{"Compound": "CCCCCN1C=C/C(=C\\C(=O)N2CCCc3ccccc32)c2ccccc21", "Tested Target": "HT29 colon", "growth": "73.2% (inactive)"}
{"Compound": "CC1=C(C(=O)/C=C/c2ccc(N(C)C)cc2)C(c2ccccc2)NC(=S)N1 (configuration not stated)", "Tested Target": "HT29 colon", "growth": "102% (inactive)"}
{"Compound": "O=C(c1nnc(Nc2ccccc2Br)o1)c1c[nH]c2ccccc12", "Tested Target": "HT29 colon", "growth": "100% (inactive)"}
{"Compound": "COc1c(Cl)c2c(c(OC)c1OC)-c1ccc(SC)c(=O)cc1[C@@H](NC(=O)OCC(F)(F)F)CC2", "Tested Target": "HT29 colon", "growth": "13.5% (inactive)"}
{"Compound": "C=C1C(=O)O[C@H]2[C@H]1CC/C(CNC(=O)c1cccc3ccccc13)=C\\CC[C@@]1(C)O[C@@H]21", "Tested Target": "HT29 colon", "growth": "8.85% (active)"}
{"Compound": "CCN(CC)CCOc1ccc(NC(=O)C(C(C)C)N2C(=O)/C(=C/c3ccc(Br)cc3)SC2=S)cc1 (configuration not stated)", "Tested Target": "HT29 colon", "growth": "-5.87% (active)"}
{"Compound": "NC(=NCCCOc1ccc(F)cc1)Nc1ccc(Cl)cc1", "Tested Target": "HT29 colon", "growth": "13.8% (inactive)"}
{"Compound": "N#Cc1c(-c2ccccc2)nc2c(c(-c3ccccc3)nn2-c2ccccc2)c1-c1ccc(O)cc1", "Tested Target": "HT29 colon", "growth": "84.7% (inactive)"}
{"Compound": "COc1cc2c(c(OC)c1OC)-c1ccc(NNC(=S)N(Cc3cccc(C[N+](Cc4cccc(CNC56CC7CC(CC(C7)C5)C6)c4)(Cc4cccc(CNC56CC7CC(CC(C7)C5)C6)c4)Cc4cccc(CN(C(=S)NNc5ccc6c(cc5=O)[C@@H](NC(C)=O)CCc5cc(OC)c(OC)c(OC)c5-6)C56CC7CC(CC(C7)C5)C6)c4)c3)C34CC5CC(CC(C5)C3)C4)c(=O)cc1[C@@H](NC(C)=O)CC2 (some centres not stated)", "Tested Target": "HT29 colon", "growth": "-5.79% (active)"}
{"Compound": "Cc1cc(C)c(S(=O)(=O)Oc2ccccc2[N+](=O)[O-])c(C)c1", "Tested Target": "HT29 colon", "growth": "3.94% (active)"}

====

- System: CCRF-CEM leukemia
- Assay Remarks: NCI-60 one-dose screen, 48 h (100 = growth as untreated, 0 = no growth, -100 = all killed)
- Particulars: 10 µM unless noted
The panel holds about 83,000 compounds, 20% with a hit somewhere; the sample as a whole holds those more often.
Label scheme for growth: bottom = under 40%, middle = from 40% up to 90%, top = 90% and over

{"Compound": "CCCNC(=O)Oc1ccc(/C(=C(\\C)c2ccccc2)c2ccc(OCCCN(C)C)cc2)cc1", "Discrete Label": "middle"}
{"Compound": "O=C1c2cccc3c(-c4ccc5c(c4)ncn5C4CCCCC4)ccc(c23)C(=O)N1CCO", "Discrete Label": "middle"}
{"Compound": "C=C1C(=O)O[C@H]2[C@H]1CC/C(CNC(=O)CCc1ccc(OC)cc1)=C\\CC[C@@]1(C)O[C@@H]21", "Discrete Label": "bottom"}
{"Compound": "CC1=CCC(OC(=O)C(C)(O)CCC(O)(C(=O)OC2(C)C=CC(O)(C(C)C)CC2)C(C)C)(C(C)C)CC1 (stereo unspecified)", "Discrete Label": "top"}
{"Compound": "NS(=O)(=O)c1ccc(CCN2C(=O)c3cc(Cl)c(Cl)cc3C2=O)cc1", "Discrete Label": "top"}
{"Compound": "Cn1nc(CC#N)c2c(=N)n(N)cnc21", "Discrete Label": "top"}
{"Compound": "O=C(NNc1nc2c(F)cccc2n2cccc12)c1cnccn1", "Discrete Label": "bottom"}
{"Compound": "C=CC(=O)N[C@@H](/C=C/C(=O)OCC)Cc1ccc(-c2cc(Cl)cc(Cl)c2)cc1", "Discrete Label": "bottom"}
{"Compound": "COc1cc2oc(-c3cccc(C(=O)Nc4ccc5c(c4)OCO5)c3)cc(=O)c2c(O)c1OC", "Discrete Label": "top"}
{"Compound": "Cc1cccc(NC(=O)Nc2ccc(-n3cnc4cc(-c5ccc(O)cc5)ccc43)cc2)c1", "Discrete Label": "bottom"}
{"Compound": "COc1cc(OC)cc(C(=O)C[n+]2cccc3cc[nH]c32)c1", "Discrete Label": "top"}
{"Compound": "COc1ccc(N2CCN(c3ccc(NC4=C(Cl)C(=O)c5ncccc5C4=O)cc3)CC2)cc1", "Discrete Label": "bottom"}
{"Compound": "CCOc1cccc(-c2nc(N)nc(Nc3ccccc3SSc3ccccc3Nc3nc(N)nc(-c4cccc(OCC)c4)n3)n2)c1", "Discrete Label": "middle"}
{"Compound": "COc1cccc2c1c1nc3cc(C)c(C)cc3nc1n2CCN(C)C", "Discrete Label": "bottom"}
{"Compound": "Brc1ccc(Nc2csc(-c3ccccn3)n2)cc1", "Discrete Label": "top"}
{"Compound": "Cc1ccc(NS(=O)(=O)c2ccc(-c3cnc(C4CC4)o3)cc2)cc1C(F)(F)F", "Discrete Label": "middle"}
{"Compound": "COc1cc2nc(-c3ccc(C(F)(F)F)cc3)cc(OCCN3CCCCC3)c2cc1OC", "Discrete Label": "middle"}
{"Compound": "CN1CCN(C(=O)[C@]23CCC(C)(C)C[C@H]2C2=CC[C@@H]4[C@@]5(C)C/C(=C/c6ccncc6)C(=O)C(C)(C)[C@@H]5CC[C@@]4(C)[C@]2(C)CC3)CC1", "Discrete Label": "bottom"}
{"Compound": "COc1ccccc1/C(C)=N/NC(=O)CSc1nc2ccccc2c(=O)n1Cc1ccc(S(N)(=O)=O)cc1", "Discrete Label": "top"}
{"Compound": "O=C1C=CC(=O)N1c1cccc(Cl)c1", "Discrete Label": "middle"}
{"Compound": "CC(=O)N1c2ccccc2NC2=C(C(=O)NC2(C)C)C1c1ccco1 (stereo unspecified)", "Discrete Label": "middle"}
{"Compound": "CN1CCN(c2ccc(NC3=C(Cl)C(=O)c4ncccc4C3=O)cc2C(F)(F)F)CC1", "Discrete Label": "bottom"}
{"Compound": "NS(=O)(=O)c1ccc(CCN2C(=O)C3C(C2=O)C2(Cl)C(Cl)=C(Cl)C3(Cl)C2(Cl)Cl)cc1 (stereo unspecified)", "Discrete Label": "middle"}
{"Compound": "CC1=C(C(=O)/C=C/c2c[nH]c3ccccc23)C(c2ccccc2)NC(=S)N1 (stereo unspecified)", "Discrete Label": "top"}
{"Compound": "O=c1c2c(c(=O)n1O)c1c3ccc[nH]c3nc1c1nc3[nH]cccc3c12", "Discrete Label": "bottom"}
